testTarget: human FPR1 (Homo sapiens)
Sequence (P21462 1-350): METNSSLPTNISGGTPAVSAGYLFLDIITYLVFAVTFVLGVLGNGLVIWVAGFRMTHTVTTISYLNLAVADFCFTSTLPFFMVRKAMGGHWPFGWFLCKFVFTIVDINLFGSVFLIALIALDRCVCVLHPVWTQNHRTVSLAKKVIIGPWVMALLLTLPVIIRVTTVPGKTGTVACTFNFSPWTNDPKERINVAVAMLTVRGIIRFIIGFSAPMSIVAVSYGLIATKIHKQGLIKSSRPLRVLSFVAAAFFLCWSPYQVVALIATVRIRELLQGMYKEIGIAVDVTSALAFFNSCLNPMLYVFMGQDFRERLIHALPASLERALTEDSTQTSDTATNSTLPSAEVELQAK
assayRemarks: FPR1 cyclic adenosine monophosphate (cAMP) assay
measurementParameters: CHO cells overexpressing human FPR1; forskolin 10 μM; inhibition of cAMP production; HTRF; read-out: hFPR1 cAMP2 EC50
readoutType: EC50 (nM)

1: COc1cc(F)c(-n2cc(C(C)C)nc2NC(=O)c2ccc(OC(F)F)cc2)c(F)c1
2: CCOC(=O)c1cn(-c2c(F)cc(OC)cc2F)c(NC(=O)c2ccc(OC(F)F)cc2)n1
3: COc1ccc(-c2cn(-c3c(F)cc(OC)cc3F)c(NC(=O)c3ccc(OC(F)F)cc3)n2)cc1
rank_up(items): orders items by reported EC50 in ascending numerical order. Respond with an ordered listing of the labels, as requested.
3, 2, 1
